Tested on: MRC-5LD (noncancerous human lung fibroblasts doxorubicin-resistant)
PROTOCOL_DESCRIPTION: Cytotoxic MTS assay, MRC-5LD
Format: cell-based
REPORTED_PROPERTY: IC50 (µM)
Your answer is read as µM, so omit the unit and give the number.

**Q:** For COc1cccc(C(=O)OCCCS(=O)(=O)c2cc[n+]([O-])c3cc(Cl)ccc23)c1OC , what is its reported IC50?
**A:** 16.2

**Q:** # repeat for COc1ccccc1C(=O)OCCS(=O)(=O)c1cc[n+]([O-])c2cc(Cl)ccc12
**A:** 4.17

**Q:** Can you check COc1ccc(C(=O)OCCS(=O)(=O)c2cc[n+]([O-])c3cc(Cl)ccc23)cc1 next?
**A:** 2.91
